- Tested on: A549
- Assay Protocol: Cytotoxicity against human A549 cells after 3 days
- Type: functional, cell-based
- Test Parameters: a549
Measurement Name: IC50 (nM)

CC[C@@]1(O)C(=O)OCc2c1cc1n(c2=O)Cc2cc3cc(-c4ccncc4)ccc3nc2-1.Cl :: 62

* * *

- Tested on: A549
- Assay Protocol: Cytotoxicity against human A549 cells after 3 days
- Type: functional, cell-based
- Test Parameters: Homo sapiens, A549, 72 h
pIC50: −log10 of the molar value.
Item-by-item account of pIC50
Measurement Name: pIC50

CC[C@@]1(O)C(=O)OCc2c1cc1n(c2=O)Cc2cc3cc(-c4ccc(OC)cc4)ccc3nc2-1 :: 6.30
CC[C@@]1(O)C(=O)OCc2c1cc1n(c2=O)Cc2cc3cc(-c4cccc(C(=O)OC)c4)ccc3nc2-1 :: 7.64
CC[C@@]1(O)C(=O)OCc2c1cc1n(c2=O)Cc2cc3cc(-c4cccc(Cl)c4)ccc3nc2-1 :: 7.17
CC[C@@]1(O)C(=O)OCc2c1cc1n(c2=O)Cc2cc3cc(-c4cnc5ccccc5c4)ccc3nc2-1 :: 5.23
CC[C@@]1(O)C(=O)OCc2c1cc1n(c2=O)Cc2cc3cc(-c4ccc(O)cc4)ccc3nc2-1 :: 6.85
CC[C@@]1(O)C(=O)OCc2c1cc1n(c2=O)Cc2cc3cc(-c4cccc(N(C)C)c4)ccc3nc2-1 :: 7.40
CC[C@@]1(O)C(=O)OCc2c1cc1n(c2=O)Cc2cc3cc(-c4cccnc4)ccc3nc2-1 :: 7.17
CC[C@@]1(O)C(=O)OCc2c1cc1n(c2=O)Cc2cc3cc(-c4ccsc4)ccc3nc2-1 :: 7.92
